biological target: µ opioid receptor (MOR) (Homo sapiens); assay: Radioligand competition binding, MOR ([3H]-DAMGO), HEK293 cell homogenates; settings: read-out: MOR % (percent inhibition), at 10,000 nM; [3H]-DAMGO
Sequence (P35372 whole entry): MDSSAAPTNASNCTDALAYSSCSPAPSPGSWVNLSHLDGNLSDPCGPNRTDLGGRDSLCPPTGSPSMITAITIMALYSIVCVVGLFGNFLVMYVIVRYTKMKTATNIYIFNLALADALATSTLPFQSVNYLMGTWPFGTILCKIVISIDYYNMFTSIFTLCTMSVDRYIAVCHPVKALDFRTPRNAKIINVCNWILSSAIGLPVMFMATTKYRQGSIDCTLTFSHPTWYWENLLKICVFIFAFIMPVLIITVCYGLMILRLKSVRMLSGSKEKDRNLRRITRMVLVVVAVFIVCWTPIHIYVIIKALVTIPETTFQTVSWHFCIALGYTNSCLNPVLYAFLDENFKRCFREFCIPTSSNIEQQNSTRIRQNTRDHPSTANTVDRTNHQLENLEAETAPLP
MEASURE: inhibition at 10 µM (%)
Field format: number, assumed %, no unit text.

As a guide, the following entries are already answered.
In [3]: df
Out[3]:
                         structure_notation  unit_of_measurement  reported_result
0  Brc1ccc2c(c1)C(c1ccccc1)=NCc1c(-c3cnco3)ncn1-2                    %               11
1  C[C@H]1N=C(c2ccccc2F)c2cc(Br)ccc2-n2cnc(C(=O)N(C)C)c21                    %                0
2  C#Cc1ccc2c(c1)C(c1ccccc1F)=N[C@H](C)c1c(C(=O)NCC)ncn1-2                    %               10
3  C#Cc1ccc2c(c1)C(c1ccccn1)=N[C@H](C)c1c(C(=O)NC)ncn1-2                    %               17
4  C#Cc1ccc2c(c1)C(c1ccccc1F)=N[C@@H](C)c1c(C(N)=O)ncn1-2                    %                2
5  Cc1ncoc1-c1ncn2c1CN=C(c1ccccc1F)c1cc(Br)ccc1-2                    %                0
6  Fc1ccccc1C1=NCc2c(-c3cnco3)ncn2-c2ccc(Br)cc21                    %               16

Below: the item to evaluate.
What the record says about C#Cc1ccc2c(c1)C(c1ccccc1F)=N[C@@H](C)c1c(C(=O)SCC)ncn1-2 : inhibition at 10 µM is 41

----------
Below is a list of entries, each paired with its recorded Ki value.
biological target: synaptic benzodiazepine-sensitive receptors (BZR), GABAAR; assay: 3H-flunitrazepam binding, rat brain homogenate; conditions: read-out: BZR (Ki)

As a guide, the following entries are already answered.
>>> df
                                   molecule                               test_target  reported_result
0  C#Cc1ccc2c(c1)C(c1ccccc1F)=NCc1c(C(=O)OCc3ccccc3)ncn1-2 [MP-II-075]  synaptic benzodiazepine-sensitive receptors (BZR), GABAAR         0.021 µM
1  Fc1ccccc1C1=NCc2c(-c3cnco3)ncn2-c2ccc(Br)cc21 [SH-I-85]  synaptic benzodiazepine-sensitive receptors (BZR), GABAAR         0.011 µM
2  C#Cc1ccc2c(c1)C(c1ccccc1F)=N[C@H](C)c1c(C(=O)O)ncn1-2 [SH-053-2′F-R-CH3-Acid]  synaptic benzodiazepine-sensitive receptors (BZR), GABAAR         0.037 µM
3  C#Cc1ccc2c(c1)C(c1ccccn1)=NCc1c(C(=O)O)ncn1-2 [SR-II-54]  synaptic benzodiazepine-sensitive receptors (BZR), GABAAR         0.069 µM
4  C#Cc1ccc2c(c1)C(c1ccccc1F)=N[C@H](C)c1c(C(=O)NC3CC3)ncn1-2 [GL-II-75]  synaptic benzodiazepine-sensitive receptors (BZR), GABAAR         0.093 µM
5  COC(=O)c1ncn2c1[C@@H](C)N=C(c1ccccc1F)c1cc(Br)ccc1-2 [MP-III-058]  synaptic benzodiazepine-sensitive receptors (BZR), GABAAR          0.29 µM
6  C#Cc1ccc2c(c1)C(c1ccccc1F)=N[C@@H](C)c1c(C(=O)OC3CC3)ncn1-2 [GL-I-38]  synaptic benzodiazepine-sensitive receptors (BZR), GABAAR         0.127 µM
7  C#Cc1ccc2c(c1)C(c1ccccc1F)=N[C@@H](C)c1c(C(=O)NC(C)(C)C)ncn1-2 [GL-I-41]  synaptic benzodiazepine-sensitive receptors (BZR), GABAAR          0.14 µM

What the record says about C[C@H]1N=C(c2ccccc2F)c2cc(C3CC3)ccc2-n2cnc(C(=O)N(C)C)c21 [GL-III-70] : Ki is 3.4 µM

What the record says about C#Cc1ccc2c(c1)C(c1ccccc1F)=N[C@@H](C)c1c(-c3nc(C(C)C)no3)ncn1-2 [GL-I-81] : Ki is 0.839 µM

----------
target: δ opioid receptor (DOR) (Homo sapiens); assay: Radioligand competition binding, DOR ([3H]-DADLE), HEK293 cell homogenates; conditions: read-out: DOR % (percent inhibition), at 10,000 nM
Sequence (P41143 whole entry): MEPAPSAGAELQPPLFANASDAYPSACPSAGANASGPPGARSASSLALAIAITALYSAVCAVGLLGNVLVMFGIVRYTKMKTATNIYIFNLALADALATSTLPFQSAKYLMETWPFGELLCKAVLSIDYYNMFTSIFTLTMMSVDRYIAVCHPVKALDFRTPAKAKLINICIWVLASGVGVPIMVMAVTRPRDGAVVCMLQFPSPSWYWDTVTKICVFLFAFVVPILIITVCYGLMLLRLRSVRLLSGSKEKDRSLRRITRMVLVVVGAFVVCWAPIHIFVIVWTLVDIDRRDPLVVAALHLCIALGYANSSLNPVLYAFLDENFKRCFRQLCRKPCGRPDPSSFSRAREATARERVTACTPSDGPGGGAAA
MEASURE: inhibition at 10 µM
Answers without a unit are incomplete; give the number and then its unit.

                                   molecule                             test_target  reported_result
0  C#Cc1ccc2c(c1)C(c1ccccc1F)=N[C@H](C)c1c(C(=O)OC)ncn1-2 [MP-III-004]  δ opioid receptor (DOR) (Homo sapiens)              24%

What the record says about C#Cc1ccc2c(c1)C(c1ccccc1)=NCc1c(-c3cnco3)ncn1-2 [KRM-II-82] : inhibition at 10 µM is 20%

What the record says about C#Cc1ccc2c(c1)C(c1ccccc1F)=NCc1c(-c3cnco3)ncn1-2 [KRM-II-18B] : inhibition at 10 µM is 20%

What the record says about C[C@H]1N=C(c2ccccc2F)c2cc(C3CC3)ccc2-n2cnc(C(=O)N(C)C)c21 [GL-III-70] : inhibition at 10 µM is 50%

----------
target: synaptic benzodiazepine-sensitive receptors (BZR), GABAAR; assay: 3H-flunitrazepam binding, rat brain homogenate; settings: read-out: BZR (Ki)
So basically: is Ki under 100 nM? Then Y. Not under? Then N.

In [3]: df
Out[3]:
                                   molecule                               test_target  label
0  CCOC(=O)c1ncn2c1[C@@H](C)N=C(c1ccccc1F)c1cc(Br)ccc1-2  synaptic benzodiazepine-sensitive receptors (BZR), GABAAR      N
1  C#Cc1ccc2c(c1)C(c1ccccc1F)=NCc1c(-c3cnco3)ncn1-2 [KRM-II-18B]  synaptic benzodiazepine-sensitive receptors (BZR), GABAAR      Y
2  C#Cc1ccc2c(c1)C(c1ccccn1)=NCc1c(C(=O)OC(C)C)ncn1-2  synaptic benzodiazepine-sensitive receptors (BZR), GABAAR      Y
3  C#Cc1ccc2c(c1)C(c1ccccc1F)=N[C@@H](C)c1c(C(=O)NC)ncn1-2  synaptic benzodiazepine-sensitive receptors (BZR), GABAAR      Y
4  CCNC(=O)c1ncn2c1[C@@H](C)N=C(c1ccccc1F)c1cc(C3CC3)ccc1-2  synaptic benzodiazepine-sensitive receptors (BZR), GABAAR      N

Hi there! Is Ki for C#Cc1ccc2c(c1)C(c1ccccc1F)=N[C@H](C)c1c(C(=O)NC(C)C)ncn1-2 below 100 nM, do you know?
N

----------
target: µ opioid receptor (MOR) (Homo sapiens); assay: Radioligand competition binding, MOR ([3H]-DAMGO), HEK293 cell homogenates; conditions: at 10,000 nM; [3H]-DAMGO
Below is a list of entries, each paired with its recorded MOR % (percent inhibition) value.
Field format: number, assumed %, no unit text.

As a guide, the following entries are already answered.
>>> df
                                   compound                     measure  reported_result
0  C#Cc1ccc2c(c1)C(c1ccccc1F)=N[C@@H](C)c1c(-c3nc(C(C)C)no3)ncn1-2  MOR % (percent inhibition)               64
1  C#Cc1ccc2c(c1)C(c1ccccc1F)=N[C@H](C)c1c(-c3nc(C)no3)ncn1-2  MOR % (percent inhibition)                7
2  C#Cc1ccc2c(c1)C(c1ccccc1F)=N[C@@H](C)c1c(-c3cnco3)ncn1-2  MOR % (percent inhibition)               10

What the record says about Cc1noc(-c2ncn3c2[C@@H](C)N=C(c2ccccc2F)c2cc(Br)ccc2-3)n1 : MOR % (percent inhibition) is 26

What the record says about C#Cc1ccc2c(c1)C(c1ccccc1F)=N[C@@H](C)c1c(-c3nc(C)no3)ncn1-2 : MOR % (percent inhibition) is 2

What the record says about CCOC(=O)c1ncn2c1[C@H](C)N=C(c1ccccc1F)c1cc(Br)ccc1-2 [SH-I-048B] : MOR % (percent inhibition) is 0

What the record says about CCc1noc(-c2ncn3c2[C@@H](C)N=C(c2ccccc2F)c2cc(C4CC4)ccc2-3)n1 : MOR % (percent inhibition) is 25

What the record says about Cc1noc(-c2ncn3c2[C@@H](C)N=C(c2ccccn2)c2cc(C4CC4)ccc2-3)n1 : MOR % (percent inhibition) is 7

What the record says about C#Cc1ccc2c(c1)C(c1ccccc1F)=N[C@@H](C)c1c(-c3nc(CC)no3)ncn1-2 : MOR % (percent inhibition) is 28

What the record says about C#Cc1ccc2c(c1)C(c1ccccc1F)=N[C@H](C)c1c(-c3nc(C(C)C)no3)ncn1-2 : MOR % (percent inhibition) is 33

What the record says about Cc1noc(-c2ncn3c2[C@@H](C)N=C(c2ccccc2F)c2cc(C4CC4)ccc2-3)n1 : MOR % (percent inhibition) is 8
